Molecular target: cynomolgus IL-36R (on cells, allelic variant not stated) (cynomolgus monkey), A0A2K5
Sequence (chain, as listed by the source mutant): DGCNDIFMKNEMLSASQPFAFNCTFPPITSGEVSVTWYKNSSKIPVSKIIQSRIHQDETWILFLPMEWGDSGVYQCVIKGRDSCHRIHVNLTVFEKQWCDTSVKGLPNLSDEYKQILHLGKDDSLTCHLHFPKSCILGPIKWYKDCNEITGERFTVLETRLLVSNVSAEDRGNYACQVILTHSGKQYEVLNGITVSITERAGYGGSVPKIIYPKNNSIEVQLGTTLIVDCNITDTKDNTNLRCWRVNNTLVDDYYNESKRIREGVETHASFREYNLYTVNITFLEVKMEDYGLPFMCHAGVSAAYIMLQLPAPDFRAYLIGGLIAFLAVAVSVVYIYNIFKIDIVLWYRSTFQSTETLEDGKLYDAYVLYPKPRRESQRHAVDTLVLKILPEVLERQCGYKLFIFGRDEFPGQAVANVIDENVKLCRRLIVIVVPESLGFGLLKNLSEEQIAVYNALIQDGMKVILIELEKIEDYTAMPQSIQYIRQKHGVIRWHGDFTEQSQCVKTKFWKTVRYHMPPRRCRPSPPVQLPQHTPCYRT
Test: cell-based or functional assay
measurement.type: EC50 (nM), IL-8 secretion by primary cynomolgus keratinocytes, 50 ng/ml cyno IL-36α
Dear colleague, please return just the value in nM, with no unit written.

# EC50 (nM), IL-8 secretion by primary cynomolgus keratinocytes, 50 ng/ml cyno IL-36α lookup, item Hzd 5D3 (APE6194) (antibody, V domains shown, also called 5D3 Humanized) VH: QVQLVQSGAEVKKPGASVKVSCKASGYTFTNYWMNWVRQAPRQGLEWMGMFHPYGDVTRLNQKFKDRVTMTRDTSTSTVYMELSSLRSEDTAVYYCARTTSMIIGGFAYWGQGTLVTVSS VL: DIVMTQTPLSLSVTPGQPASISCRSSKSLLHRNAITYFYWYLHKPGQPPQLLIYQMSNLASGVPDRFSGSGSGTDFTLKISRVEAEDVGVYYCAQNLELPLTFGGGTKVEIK
1.2
